// provenance: patent US20250281462A1

- PROCEDURE SUMMARY: Phase 1 single ascending dose (SAD) trial, plasma pharmacokinetics (Part 1)
- EXPERIMENTAL PARAMETERS: male, human, in vivo, po, 180 mg, Cmax, human plasma; Regimen D: 180 mg TQS-168 SDD oral suspension, fasted, single dose; geometric mean
VALUE KIND: Cmax (ng/mL)
Your answer is read as ng/mL, so omit the unit and give the number.

// returns reported Cmax for input CC(C)(C)c1ccc(-c2nc3ccccc3[nH]2)cc1 [TQS-168, 2-(4-tert-butylphenyl)-1H-benzimidazole] 218

---

- PROCEDURE SUMMARY: Phase 1 multiple dose trial, plasma pharmacokinetics (Part 2)
- EXPERIMENTAL PARAMETERS: male, human, in vivo, 90 mg, Cmax, human plasma; Regimen J: 90 mg TQS-168 SDD QD 7 days, fed; Day 7
VALUE KIND: Cmax (nM)
Use nM as the unit, but write only the number.

Tell me the measured Cmax of CC(C)(C)c1ccc(-c2nc3ccccc3[nH]2)cc1 , please. 190

---

- PROCEDURE SUMMARY: Phase 1 single ascending dose (SAD) trial, plasma pharmacokinetics (Part 1)
- EXPERIMENTAL PARAMETERS: male, human, in vivo, po, 270 mg, Tmax, human plasma; Regimen H: 270 mg TQS-168 SDD oral suspension, fasted, single dose; median
VALUE KIND: Tmax (h)
Could you give me the number in h? Just the number is fine.

# Tmax lookup, item CC(C)(C)c1ccc(-c2nc3ccccc3[nH]2)cc1 [TQS-168, 2-(4-tert-butylphenyl)-1H-benzimidazole] 1.5

---

- PROCEDURE SUMMARY: Phase 1 single ascending dose (SAD) trial, plasma pharmacokinetics (Part 1)
- EXPERIMENTAL PARAMETERS: male, human, in vivo, po, 540 mg, AUC(0-last), human plasma; Regimen C: 540 mg TQS-168 MC oral suspension, fasted, single dose; geometric mean
VALUE KIND: AUC(0-t) (ng·h/mL)
// units = ng·h/mL; emit number, no label

For CC(C)(C)c1ccc(-c2nc3ccccc3[nH]2)cc1 , what is its reported AUC(0-t)? 1540

---

- PROCEDURE SUMMARY: Phase 1 multiple dose trial, plasma pharmacokinetics (Part 2)
- EXPERIMENTAL PARAMETERS: male, human, in vivo, po, 90 mg, Tmax (median), Regimen J, 90 mg TQS-168 SDD powder for oral suspension QD, fed; Day 1; plasma; median
VALUE KIND: Tmax
Please make sure the unit comes right after the number.

# query: Tmax of entry CC(C)(C)c1ccc(-c2nc3ccccc3[nH]2)cc1 [TQS-168, 2-(4-tert-butylphenyl)-1H-benzimidazole] 3 h

---

- PROCEDURE SUMMARY: Phase 1 single ascending dose (SAD) trial, plasma pharmacokinetics (Part 1)
- EXPERIMENTAL PARAMETERS: male, human, in vivo, po, 540 mg, AUC(0-24), human plasma; Regimen C: 540 mg TQS-168 MC oral suspension, fasted, single dose; geometric mean
VALUE KIND: AUC(0-t) (ng·h/mL)
Form entry: value (ng·h/mL) — number only.

Entry under review: CC(C)(C)c1ccc(-c2nc3ccccc3[nH]2)cc1 [TQS-168, 2-(4-tert-butylphenyl)-1H-benzimidazole] . Reported AUC(0-t)? 1440

---

- PROCEDURE SUMMARY: Phase 1 multiple dose trial, plasma pharmacokinetics (Part 2)
- EXPERIMENTAL PARAMETERS: male, human, in vivo, 120 mg, AUC(0-tau), human plasma; Regimen I: 120 mg TQS-168 SDD QD 7 days, fasted; Day 7; geometric mean
VALUE KIND: AUC (ng·h/mL)
Enter your answer as a number in ng·h/mL; do not include the unit.

Reported AUC for CC(C)(C)c1ccc(-c2nc3ccccc3[nH]2)cc1 : what is it? 692
